- system: AK3 (Homo sapiens)
- procedure_summary: isothermal titration calorimetry
- Assay type: binding
- experimental_setup: Kd, ITC, 25 °C, 30 mM MOPS pH 7.0, 50 mM NaCl
pKd: −log10 of the molar value.
measurement_type: pKd

Look up pKd for this compound: Nc1ncnc2c1ncn2[C@@H]1O[C@H](COP(=O)(O)OP(=O)(O)OP(=O)(O)O)[C@@H](O)[C@H]1O [ATP, adenosine triphosphate] ~4.89

----------
- system: AKeco (Escherichia coli, UniProt P69441)
- Sequence (P69441 whole entry): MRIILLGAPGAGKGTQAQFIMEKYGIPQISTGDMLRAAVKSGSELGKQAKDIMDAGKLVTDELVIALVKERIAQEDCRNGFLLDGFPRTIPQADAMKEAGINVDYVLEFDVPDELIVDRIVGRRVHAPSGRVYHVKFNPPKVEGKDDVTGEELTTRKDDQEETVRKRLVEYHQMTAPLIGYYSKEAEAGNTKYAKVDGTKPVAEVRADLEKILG
- procedure_summary: NMR titration of ATP to AKeco with adenosine binding sites blocked by AP5A
- Set-up: species or system E. coli
measurement_type: Kd (mM)
Give the quantity in mM, number only.

What measured Kd goes with Nc1ncnc2c1ncn2[C@@H]1O[C@H](COP(=O)(O)OP(=O)(O)OP(=O)(O)O)[C@@H](O)[C@H]1O [ATP, adenosine triphosphate] ? 12

----------
- system: AK3 (Homo sapiens, UniProt Q9UIJ7)
- Sequence (Q9UIJ7 whole entry): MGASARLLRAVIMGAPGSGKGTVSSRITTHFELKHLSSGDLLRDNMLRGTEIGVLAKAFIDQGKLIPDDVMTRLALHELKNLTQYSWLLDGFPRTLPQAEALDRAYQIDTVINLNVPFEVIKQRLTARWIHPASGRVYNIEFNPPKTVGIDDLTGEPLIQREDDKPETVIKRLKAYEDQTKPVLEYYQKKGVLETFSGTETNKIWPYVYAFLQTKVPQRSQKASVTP
- procedure_summary: NMR 15N-HSQC chemical shift titration of ligand binding to AK3
// Kd lookup, one value per entry

Nc1nc2c(ncn2[C@@H]2O[C@H](COP(=O)(O)OP(=O)(O)OP(=O)(O)O)[C@@H](O)[C@H]2O)c(=O)[nH]1 [GTP, guanosine triphosphate]    1.7 mM

Could you now look at the following compound, please?
Entry Nc1ncnc2c1ncn2[C@@H]1O[C@H](COP(=O)(O)OP(=O)(O)OP(=O)(O)O)[C@@H](O)[C@H]1O [ATP, adenosine triphosphate] : reported Kd = ? 9 mM

----------
- system: AK3 (Homo sapiens)
measurement_type: Ki

Fill in the recorded Ki for this molecule, with AK3 (Homo sapiens) as test system: Nc1ncnc2c1ncn2[C@@H]1O[C@H](COP(=O)(O)OP(=O)(O)OP(=O)(O)O)[C@@H](O)[C@H]1O [ATP, adenosine triphosphate] 200 µM

----------
- system: UniProt:Q9UIJ7
- procedure_summary: isothermal titration calorimetry
- Type: binding
- experimental_setup: Kd, ITC, Table 2, average of three technical replicates, 25 °C, pH 7.0
measurement_type: Kd (µM)
Use µM as the unit, but write only the number.

Nc1nc2c(ncn2[C@@H]2O[C@H](COP(=O)(O)OP(=O)(O)OP(=O)(O)O)[C@@H](O)[C@H]2O)c(=O)[nH]1 [GTP, guanosine triphosphate]    2.1

Record request: Kd value, item Nc1ncnc2c1ncn2[C@@H]1O[C@H](COP(=O)(O)OP(=O)(O)OP(=O)(O)O)[C@@H](O)[C@H]1O [ATP, adenosine triphosphate] 13
